- Tested on: MDA-MB-231 breast
- Assay method text: NCI-60 one-dose screen, 48 h (100 = growth as untreated, 0 = no growth, -100 = all killed)
- Recorded conditions: 10 µM unless noted
Compounds without any hit were thinned out: in the full panel of roughly 83,000, 20% have a hit.

{"Compound": "COc1ccc(-c2nc(SCC(C)C)nc(Nc3ccc([N+](=O)[O-])cc3)c2C#N)cc1", "growth / %": 94.6}
{"Compound": "COc1cc(NC(C)CCCN)c2nc(C)ccc2c1OC (configuration not stated)", "growth / %": 75.6}
{"Compound": "COc1cc(CCNc2cnc3cc(N)cc(N)c3n2)cc(OC)c1", "growth / %": 96.7}
{"Compound": "COc1cc(-c2cc3cnccc3c3nc(N)c4ccncc4c23)cc(OC)c1OC", "growth / %": 42.9}
{"Compound": "CCCCCCCCCCCCCCCC[n+]1cccc(C#N)c1", "growth / %": 69.7}
{"Compound": "CCOc1ccc(N(C)c2ccc(/C=C/C3=[N+](C)c4ccccc4C3(C)C)cc2)cc1", "growth / %": -56.2}
{"Compound": "CCCCn1c(Cc2ccc(OC)cc2)nc2cc(OC)c(OC)cc2c1=O", "growth / %": 73.9}
{"Compound": "O=C(NC1CCN(Cc2ccccc2)CC1)c1cc(-c2cccnc2)nc2ccc(Cl)cc12", "growth / %": 58.8}
{"Compound": "CCOC(=O)NC1=NCC(C)(C)S1", "growth / %": 101}
{"Compound": "O=C(CN1C(=O)NC(c2ccccc2)(c2ccccc2)C1=O)c1ccc(N2CCCC2)cc1", "growth / %": 113}
{"Compound": "COc1cc(-c2nn(-c3ccc(NC(=O)c4ccc(Cl)c(C(F)(F)F)c4)cc3)cc2-c2ccncc2)ccc1Cl", "growth / %": 3.94}
{"Compound": "CSc1nc(N)n2nccc2n1", "growth / %": 100}
{"Compound": "NC(=O)c1c(Nc2ccccc2)nn2cc(-c3nc4ccccc4s3)c(N)nc12", "growth / %": 84.7}
{"Compound": "c1ccc(Nc2ncc3c(n2)-c2cccn2CC3)cc1", "growth / %": 80.8}
{"Compound": "O=C(NCCNCCO)c1cc([N+](=O)[O-])cc([N+](=O)[O-])c1O", "growth / %": 109}
{"Compound": "Nc1nc2c(c3cnccc13)C(c1cccc(Cl)c1)Cc1cnccc1-2 (configuration not stated)", "growth / %": 8.99}
{"Compound": "COC(c1ccccc1)C(Br)C(=O)c1ccccc1 (configuration not stated)", "growth / %": 92.9}
{"Compound": "O=c1[nH]c(=S)[nH]c(O)c1/C=C1\\C=Nc2ccccc21", "growth / %": 64.5}
{"Compound": "Cc1nc2ccccc2c(=O)n1-c1cccc(OCc2cn(-c3cccc(O)c3)nn2)c1", "growth / %": 78.3}
{"Compound": "COCn1c(C(=O)OC)cc2oc(/C=C3/SC(=S)N(N)C3=O)cc21", "growth / %": 110}
{"Compound": "COc1cc2cn3c4ccc(O)cc4[nH]c(=O)c3c2cc1OC", "growth / %": 30.9}
{"Compound": "COc1ccc(-c2cc(C#N)c(NNC(C)=O)[nH]2)cc1", "growth / %": 106}

* * *

- System: SN12C renal
- Assay method text: NCI-60 one-dose screen, 48 h (100 = growth as untreated, 0 = no growth, -100 = all killed)
- Recorded conditions: 10 µM unless noted
This is part of a sample that, as a whole, favours compounds with a hit. Of some 83,000 tested, about 20% had one in any assay. Active and inactive are the calls of the source. How the source made its calls: active means growth percent below 10; inactive means the rest.
Consider the following compounds and their measured growth readings.
Metric name: growth

{"Compound": "CCOC(=O)C1=C(c2ccccc2)NC(=O)NC1CN1C(=O)c2ccccc2C1=O (stereo unspecified)", "Reading": "107% (inactive)"}
{"Compound": "COc1ccc(/C=N/c2cc(C(C)(C)C)nn2-c2ccccc2)cc1", "Reading": "102% (inactive)"}
{"Compound": "COc1ccccc1Nc1nnc(COc2ccc(CNC(=O)CCCC/C=C/C(C)C)cc2OC)o1", "Reading": "105% (inactive)"}
{"Compound": "CCN(CC)C(=O)C1(C)CCCC2(C)c3cc(OC(C)=O)ccc3CCC12 (stereo unspecified)", "Reading": "91.7% (inactive)"}
{"Compound": "COc1ccc(NC(=O)/C=C(C)/C=C/C=C(C)/C=C/C2=C(C)CCCC2(C)C)cc1", "Reading": "65.9% (inactive)"}
{"Compound": "CC1C(=O)CCCC1=O", "Reading": "95.6% (inactive)"}
{"Compound": "O=C(/C=C/c1c[nH]c2ccccc12)c1cc2ccccc2o1", "Reading": "101% (inactive)"}
{"Compound": "CCOc1ccc(Br)cc1/C=C(\\C#N)c1ccc([N+](=O)[O-])cc1", "Reading": "85.3% (inactive)"}
{"Compound": "CCOC(=O)c1sc(NS(=O)(=O)c2ccccc2)nc1C", "Reading": "100% (inactive)"}
{"Compound": "O=C1Nc2ccccc2/C1=C/c1cn(CC(O)Cn2cc(/C=C3\\C(=O)Nc4ccccc43)c3ccccc32)c2ccccc12 (stereo unspecified)", "Reading": "-53.6% (active)"}
{"Compound": "CCCCCCCCCCCCCCCCCCOP(=O)(O)O", "Reading": "94.1% (inactive)"}
